Molecular target: SARS-CoV-2 RBD (residues 319-541), wild type (SARS-CoV-2, wild type, UniProt P0DTC2)
Assay: BLI
Conditions: both partners purified
endpoint_label: binding result

>>> result("C941 (R1-32-like mAb, ref. 27) (antibody, V domains shown) VH: QVQLVQSGAEVKKPGSSVKVSCKASGGTSRSYPISWVRQAPGQGLEWMGRIIPIVGTANYAQRFQGRVTITADESTGTAYMELSSLRSEDTAVYYCARNRGYSDYGSVYYFDYWGQGTLVTVSS VL: QSVLTQPPSVSGAPGQRVTISCTGSSSNIGAGYDVHWYQQLPGAAPKLLIYRNINRPSGVPDRFSGSKSGTSASLAITGLQADDEADYYCQSYDSSLSGSVFGGGTKLTV")
"binds"
>>> result("C978 (R1-32-like mAb, ref. 27) (antibody, V domains shown) VH: QVQLVQSGAEVKKPGSSVKVSCKASGATFSNYIISWVRQAPGQGLEWMGRTIPLLDIANYAQKFQGRVTITADKSTRIVYMHLGSLTSEDTAVYYCATGKGYSSSSAAYYFDHWGQGTLVTVSS VL: QSVLTQPPSVSGAPGQRVTISCTGTNSNIGAGYDIHWYQQLPGTAPKLLIYGSNNRPSGVPDRFSGSKSGTSASLAITGLQAEDEADYYCQSYDSSLSGSEVFGGGTKLTVL")
"binds"
>>> result("FC08 (R1-32 related VH1-69 antibody, ref. 10) (antibody, V domains shown) VH: QLLQQSGAEVKKPGSSVKVSCKASGGTFSSYAISWVRQAPGQGLEWMGGIIPIIGIANYAQKFQGRVTITADKSTSTAYMELSSLRSEDTAVYYCARERGYSGYGAAYYFDYWGQGTLVTVSS VL: SVLTQPPSVSGAPGQRVTISCTGSSSNIGAGYDVHWYQQLPGTAPKLLIYGNSNRPSGVPDRFSGSKSGTSASLAITGLQAEDEADYYCQSYDSSLSGSVFGGGTKLTVL")
"binds"
